tested on: TK-10 renal; assay: NCI tumour cell line growth inhibition, 48 h
TEST READOUT: TGI

Report TGI for COc1cc2ccnc3c2c(c1OC)N(C)C=C3 please.
> 100 µM

Report TGI for Cc1cc(C2CC(O)C(CO)O2)c(Br)cc1Br (stereo unspecified) please.
> 100 µM

Report TGI for CN1C(=O)c2c(c3c4ccccc4n(C)c3c3c2c2ccccc2n3C)C1=O please.
> 100 µM

Report TGI for COc1ccc(-c2oc(C=Nc3ccccc3)c([N+](=O)[O-])c2-c2ccc(OC)c(OC)c2)cc1OC please.
> 100 µM

Report TGI for Cn1c(=Nc2ccccc2[N+](=O)[O-])sc2ccccc21 please.
45.2 µM

Report TGI for O=C(Cn1cc(I)c(C(=O)NCC(O)CO)n1)NCC(O)CO (stereo unspecified) please.
> 100 µM

Report TGI for CCc1c[n+]2c(cc1C1=CN3c4ccccc4[C@]45CCN6C/C(=C/CO)[C@H](C[C@H]64)[C@@H]([C@@H]1O)[C@H]35)-c1[nH]c3ccccc3c1CC2 please.
> 50 µM

Report TGI for O=[N+]([O-])c1cc(-c2ccc([As](=O)(O)O)cc2)ccc1[As](=O)(O)O please.
> 100 µM

Report TGI for CCOC(=O)C1=C(C)NC(c2ccccc2)=C(C(=O)OCc2ccccc2)C1C#Cc1ccccc1 (stereo unspecified) please.
> 100 µM

Report TGI for NC1=NN(c2ccccc2)C(=O)C1/C(=N\NC(=O)c1cc2ccccc2cc1O)C(=O)Nc1ccc(Cl)c(Cl)c1 (stereo unspecified) please.
> 100 µM

Report TGI for O=C(Nc1n[nH]c2cc(-c3ccc(F)cc3)ccc12)C1CC1 please.
> 25 µM

----------
system: SR leukemia; assay: NCI tumour cell line growth inhibition, 48 h
Please provide measured TGI for the entries that follow.

Report TGI for O=[N+]([O-])c1cc(-c2ccc([As](=O)(O)O)cc2)ccc1[As](=O)(O)O please.
> 100 µM

Report TGI for C/C(COc1ccccc1)=N\NC(N)=S please.
> 100 µM

Report TGI for CC(C)Cc1cc(-c2cccn2C)c(C#N)c(=O)[nH]1 please.
> 100 µM

Report TGI for CSCCC(NOC(=O)Cc1ccccc1)P(=O)(O)c1ccccc1 (stereo unspecified) please.
> 100 µM

Report TGI for OC[C@H](O)[C@@H](OCc1ccccc1)[C@H](NCc1ccccc1)c1cccs1 please.
> 100 µM

Report TGI for O=C1C(Nc2ccc(S(=O)(=O)Nc3cnc4ccccc4n3)cc2)=CC(=Nc2ccc(S(=O)(=O)Nc3cnc4ccccc4n3)cc2)c2ccccc21 please.
> 73.9 µM

----------
Please provide measured TGI for the entries that follow.
system: NCI/ADR-RES ovarian; test: NCI tumour cell line growth inhibition, 48 h

Report TGI for COc1ccc(C2=Nn3c(nc4sc5c(c4c3=O)CCCC5)SC2)cc1 please.
> 100 µM

Report TGI for CC(=O)OC1CC[C@@]2(C)C(=CC[C@@H]3[C@@H]2CC[C@]2(C)Nc4c(cnn4-c4ccc(F)cc4)C[C@@H]32)C1 (some centres not stated) please.
> 100 µM

Report TGI for O=S1(=O)OCCOS(=O)(=O)C1C1c2ccccc2-c2ccccc21 please.
85.1 µM

Report TGI for S=C1NC(c2ccccc2)NC(c2ccccc2)S1 (configuration not stated) please.
> 100 µM

Report TGI for COC(=O)c1cc(NC(=O)Cn2c3ccccc3c3ccccc32)cn1C please.
> 100 µM

Report TGI for c1ccc2c(c1)CCCc1nnc3nc4ccccc4n3c1-2 please.
25.1 µM

Report TGI for CNC(=O)/C(C#N)=C(\N)N1CCCC1 please.
> 100 µM

Report TGI for CCN(CC(O)COc1ccc2c(c1)[n+]([O-])nc(N)[n+]2[O-])C(C)=O (configuration not stated) please.
> 100 µM

Report TGI for CN1CN(c2ccccc2)C2(CCN(C(=O)OC(C)(C)C)CC2)C1=O please.
> 100 µM

Report TGI for Cn1c(SCc2ccc([N+](=O)[O-])cc2)nnc1C12CC3CC(CC(C3)C1)C2 please.
> 10 µM

Report TGI for COc1cc([C@@H]2c3cc4c(cc3[C@H](OC3OC5COC(C(C)C)OC5C(O)C3O)C3COC(=O)[C@@H]32)OCO4)cc(OC)c1OC (some centres not stated) please.
> 79.5 µM

Report TGI for CCN(CC)CCNC(=O)C1COc2ccc(-c3cc(=O)c4ccccc4o3)cc2O1 (configuration not stated) please.
45.8 µM

Report TGI for O=C(NC1CCCCC1)N1CCNC1=S please.
> 100 µM

Report TGI for C[C@]12CC[C@@H]3c4cc(C=O)c(OCc5ccccc5)cc4CC[C@H]3[C@@H]1CCC2OCc1ccccc1 (some centres not stated) please.
> 100 µM

Report TGI for COC(=O)[C@@]1(Cc2ccc(OC(C)=O)cc2)Cc2cc3ccccc3n2N1 please.
96.4 µM

Report TGI for Nc1cc2c3ccccc3ccc2c2ccccc12 please.
> 100 µM

Report TGI for COc1cc(/C=[N+](\[O-])c2ccccc2Cl)ccc1OC(=S)S please.
76.4 µM

Report TGI for CCOP(=O)(OCC)C(Cc1cn(S(=O)(=O)c2ccc(C)cc2)cn1)C(=O)O (configuration not stated) please.
> 100 µM

Report TGI for Clc1ccc(CCNCCNC2(c3cc4ccccc4s3)CCCCC2)cc1Cl please.
3.47 µM

Report TGI for NS(=O)(=O)c1ccc(NC(=O)Nc2cccc3ccccc23)cc1 please.
> 100 µM

Report TGI for CN1c2cccc[c]2[Sn]([CH3])([CH3])[c]2ccccc21 please.
0.0491 µM

Report TGI for CCCN1CCN(c2ccc3nc(-c4ccc5nc(-c6ccc(OCC)cc6)[nH]c5c4)[nH]c3c2)CC1 please.
> 100 µM
